Listing of recorded total protein half-life in vivo by entry.
assay: total protein half-life in vivo (active degradation + dilution); higher = more stable protein; settings: wild type E. coli NCM3722; growth: C-lim chemostat; doubling time 12 h
Answer with a number only, understood to be in h.

Example sequences with recorded total protein half-life in vivo:
| CHAIN | METRIC NAME | OUTPUT UNIT | VALUE REPORTED |
| --- | --- | --- | --- |
| MSSYANHQALAGLTLGKSTDYRDTYDASLLQGVPRSLNRDPLGLKADNLPFHGTDIWTLYELSWLNAKGLPQVAVGHVELDYTSVNLIESKSFKLYLNSFNQTRFNNWDEVRQTLERDLSTCAQGKISVALYRLDELEGQPIGHFNGTCIDDQDITIDNYEFTTDYLENATCGEKVVEETLVSHLLKSNCLITHQPDWGSLQIQYRGRQIDREKLLRYLVSFRHHNEFHEQCVERIFNDLLRFCQPEKLSVYARYTRRGGLDINPWRSNSDFVPSTTRLVRQ | total protein half-life in vivo | h | 8.79 |
| MFKPHVTVACVVHAEGKFLVVEETINGKALWNQPAGHLEADETLVEAAARELWEETGISAQPQHFIRMHQWIAPDKTPFLRFLFAIELEQICPTQPHDSDIDCCRWVSAEEILQASNLRSPLVAESIRCYQSGQRYPLEMIGDFNWPFTKGVI [P0AEI6] | total protein half-life in vivo | h | 11.6 |

Prompt line: Quick one: total protein half-life in vivo of `MVTINNARKILQRVDTLPLYLHAYAFHLNMRLERVLPADLLDIASENNLRGVKIHVLDGERFSLGNMDDKELSAFGDKARRLNLDIHIETSASDKASIDEAVAIALKTGASSVRFYPRYEGNLRDVLSIIANDIAYVRETYQDSGLTFTIEQHEDLKSHELVSLVKESEMESLSLLFDFANMINANEHPIDALKTMAPHITQVHIKDALIVKEPGGLGHKACISGQGDMPFKALLTHLICLGDDEPQVTAYGLEEEVDYYAPAFRFEDEDDNPWIPYRQMSETPLPENHLLDARLRKEKEDAINQINHVRNVLQQIKQEANHLLNH` ?
Response line: 4.36
